Reported values of Population Tubulin-Different-Phenotype (%) for individual entries
Tested on: U2OS
Assay: Multiplex assay against U2OS
Assay type: toxicity, cell-based
Settings: human, 12 h, 10 µM, compound concentration 10 uM, replicate 1
Could you give me the number in %? Just the number is fine.

Here's what some known entries look like.
{"columns": ["compound", "study-system", "units-of-measure", "val"],
 "data": [
  ["O=C(Nc1ccc(-c2ccnc(Nc3ccc(N4CCOCC4)cc3)n2)cc1)[C@@H]1CCCN1", "U2OS", "%", 97],
  ["O=C(Cc1ccc(-c2ccc(OCCN3CCOCC3)cc2)cn1)NCc1ccccc1 [TIRBANIBULIN]", "U2OS", "%", 10],
  ["CCc1cccc(CC)c1NC(=O)c1nn(C)c2c1CCc1cnc(Nc3ccc(C(=O)NC4CCN(C)CC4)cc3OC(F)(F)F)nc1-2", "U2OS", "%", 99],
  ["COc1cc2ncnc(Nc3ccc(F)c(Cl)c3)c2cc1NC(=O)/C=C/CN1CCCCC1 [DACOMITINIB ANHYDROUS]", "U2OS", "%", 15]
]}

Note to self: Population Tubulin-Different-Phenotype (%) recorded for O=C(Nc1ccc(-n2nc(-c3cccnc3)cc2C(F)(F)F)cn1)c1ccc(-c2ccccc2)c(F)c1 [BI 2049] was 35

Note to self: Population Tubulin-Different-Phenotype (%) recorded for Cc1ccc(C(=O)Nc2cccc(C(F)(F)F)c2)cc1Nc1nc(-c2cccnc2)nc2c1cnn2C was 98

Note to self: Population Tubulin-Different-Phenotype (%) recorded for COC(=N)c1nc2ccc3ncnc(Nc4ccc(OC)cc4F)c3c2s1 was 25

Note to self: Population Tubulin-Different-Phenotype (%) recorded for CCN1CCN(c2ccc(Nc3cc(N(C)C(=O)Nc4c(Cl)c(OC)cc(OC)c4Cl)ncn3)cc2)CC1 [INFIGRATINIB] was 18
